# Tested on: BT474 (breast cancer cell line)
# assay_protocol: In vitro cytotoxicity by MTT assay, BT474
# Format: cell-based
# condition_context: Homo sapiens, BT-474, 3.7 μM, 72 h, read-out: % cytotoxicity (100 − % cell survival) of BT474 cell line
Response field label: string, one of label 1 (cytotoxicity at 3.7 µM strictly below 40%) or label 0.

{"molecule": "NS(=O)(=O)c1ccc(S(=O)(=O)Nc2cccc3c(Cl)c[nH]c23)cc1 [ISL, indisulam, reference compound]", "label": "label 0"}
{"molecule": "Nc1nnc(S(=O)(=O)NC(=O)c2ccc(Cl)cc2)s1", "label": "label 1"}
{"molecule": "O=C(NS(=O)(=O)c1nnc(N=Cc2ccc(O)cc2)s1)c1ccccc1", "label": "label 1"}
{"molecule": "Nc1nnc(S(=O)(=O)NC(=O)c2ccccc2N)s1", "label": "label 1"}
{"molecule": "CN(C)c1ccc(C=Nc2nnc(S(=O)(=O)NC(=O)c3ccccc3)s2)cc1", "label": "label 1"}

Below 40% on cytotoxicity at 3.7 µM? Entry Nc1ccc(S(=O)(=O)Nc2nnc(S(=O)(=O)NC(=O)c3ccccc3N)s2)cc1
label 1

Bench note: check whether Nc1ccc(S(=O)(=O)Nc2nnc(S(=O)(=O)NC(=O)c3cccc([N+](=O)[O-])c3)s2)cc1 shows cytotoxicity at 3.7 µM below 40%
label 0

A record lists COc1ccc(C=Nc2nnc(S(=O)(=O)NC(=O)c3ccccc3)s2)cc1 . Is its cytotoxicity at 3.7 µM below 40%?
label 1

Does the reported cytotoxicity at 3.7 µM of the following molecule sit strictly below 40%? Nc1ccc(S(=O)(=O)Nc2nnc(S(=O)(=O)NC(=O)c3ccccc3O)s2)cc1
label 1

Could you please tell me whether cytotoxicity at 3.7 µM recorded for COc1cc(C=Nc2nnc(S(=O)(=O)NC(=O)c3ccccc3)s2)ccc1O is less than 40%?
label 1
